Please respond with reported Biodistribution, Muscle for every item in the list.
Tested on: SCID mice bearing twin HEK293-CCK2i4svR and wtHEK293 tumors
protocol notes: Biodistribution in SCID mice bearing twin HEK293-CCK2i4svR and wtHEK293 xenografts
Type: in vivo
run parameters: 4 h pi
Give bare numbers, in %IA/g.

[
  {
    "molecule": "CC(C)(C)C(=O)CN1C(=O)[C@H](NC(=O)Nc2cccc(C(=O)NCCOCCOCCOCCNC(=O)[C@H](CCC(=O)O)NC(=O)CCC(C(=O)O)N3CCN(CC(=O)[O-])CCN(CC(=O)[O-])CCN(CC(=O)[O-])CC3)c2)CN(C2CCCCC2)c2ccccc21.[177Lu+3] (stereo in doubt) [[^177Lu]Lu-GAS3]",
    "measured value": 0.31
  },
  {
    "molecule": "CC(C)(C)C(=O)CN1C(=O)[C@H](NC(=O)Nc2cccc(C(=O)NCCOCCOCCOCCNC(=O)[C@H](CCC(=O)O)NC(=O)CCC(C(=O)[O-])N3CCN(CC(=O)[O-])CCN(CC(=O)[O-])CC3)c2)CN(C2CCCCC2)c2ccccc21.[67Ga+3] (stereo in doubt) [[^67Ga]Ga-GAS2]",
    "measured value": 0.04
  },
  {
    "molecule": "CC(C)(C)C(=O)CN1C(=O)[C@H](NC(=O)Nc2cccc(C(=O)NCCOCCOCCOCCNC(=O)[C@H](CCC(=O)O)NC(=O)CCC(C(=O)O)N3CCN(CC(=O)[O-])CCN(CC(=O)[O-])CCN(CC(=O)[O-])CC3)c2)CN(C2CCCCC2)c2ccccc21.[67Ga+3] (stereo in doubt) [[^67Ga]Ga-GAS3]",
    "measured value": 0.25
  },
  {
    "molecule": "CC(C)(C)C(=O)CN1C(=O)[C@H](NC(=O)Nc2cccc(C(=O)NCCOCCOCCOCCNC(=O)[C@H](CCC(=O)O)NC(=O)CN3CCN(CC(=O)[O-])CCN(CC(=O)[O-])CCN(CC(=O)[O-])CC3)c2)CN(C2CCCCC2)c2ccccc21.[111In+3] (stereo in doubt) [[^111In]In-GAS1]",
    "measured value": 0.26
  },
  {
    "molecule": "CC(C)(C)C(=O)CN1C(=O)[C@H](NC(=O)Nc2cccc(C(=O)NCCOCCOCCOCCNC(=O)[C@@H](CCC(=O)O)NC(=O)CCC(C(=O)[O-])N3CCN(CC(=O)[O-])CCN(CC(=O)[O-])CC3)c2)CN(C2CCCCC2)c2ccccc21.[111In+3] (some centres unmarked) [[^111In]In-GAS2]",
    "measured value": 0.56
  },
  {
    "molecule": "CC(C)(C)C(=O)CN1C(=O)[C@H](NC(=O)Nc2cccc(C(=O)NCCOCCOCCOCCNC(=O)[C@H](CCC(=O)O)NC(=O)CN3CCN(CC(=O)[O-])CCN(CC(=O)[O-])CCN(CC(=O)[O-])CC3)c2)CN(C2CCCCC2)c2ccccc21.[67Ga+3] (stereo in doubt) [[^67Ga]Ga-GAS1]",
    "measured value": 0.19
  },
  {
    "molecule": "CC(C)(C)C(=O)CN1C(=O)[C@H](NC(=O)Nc2cccc(C(=O)NCCOCCOCCOCCNC(=O)[C@@H](CCC(=O)O)NC(=O)CCC(C(=O)O)N3CCN(CC(=O)[O-])CCN(CC(=O)[O-])CCN(CC(=O)[O-])CC3)c2)CN(C2CCCCC2)c2ccccc21.[111In+3] (some centres unmarked) [[^111In]In-GAS3]",
    "measured value": 0.31
  }
]

Attention now turns to another entry.
For the molecule shown here, CC(C)(C)C(=O)CN1C(=O)[C@H](NC(=O)Nc2cccc(C(=O)NCCOCCOCCOCCNC(=O)[C@H](CCC(=O)O)NC(=O)CN3CCN(CC(=O)[O-])CCN(CC(=O)[O-])CCN(CC(=O)[O-])CC3)c2)CN(C2CCCCC2)c2ccccc21.[177Lu+3] (stereo in doubt) [[^177Lu]Lu-GAS1] , give the reported Biodistribution, Muscle.
0.12
